Below is a list of entries, each paired with its recorded pIC50 value.
# TGT: intracellular GCN2 (phosphorylation of the GCN2 substrate eIF2α) (Homo sapiens, UniProt Q9P2K8)
# Sequence (Q9P2K8 whole entry): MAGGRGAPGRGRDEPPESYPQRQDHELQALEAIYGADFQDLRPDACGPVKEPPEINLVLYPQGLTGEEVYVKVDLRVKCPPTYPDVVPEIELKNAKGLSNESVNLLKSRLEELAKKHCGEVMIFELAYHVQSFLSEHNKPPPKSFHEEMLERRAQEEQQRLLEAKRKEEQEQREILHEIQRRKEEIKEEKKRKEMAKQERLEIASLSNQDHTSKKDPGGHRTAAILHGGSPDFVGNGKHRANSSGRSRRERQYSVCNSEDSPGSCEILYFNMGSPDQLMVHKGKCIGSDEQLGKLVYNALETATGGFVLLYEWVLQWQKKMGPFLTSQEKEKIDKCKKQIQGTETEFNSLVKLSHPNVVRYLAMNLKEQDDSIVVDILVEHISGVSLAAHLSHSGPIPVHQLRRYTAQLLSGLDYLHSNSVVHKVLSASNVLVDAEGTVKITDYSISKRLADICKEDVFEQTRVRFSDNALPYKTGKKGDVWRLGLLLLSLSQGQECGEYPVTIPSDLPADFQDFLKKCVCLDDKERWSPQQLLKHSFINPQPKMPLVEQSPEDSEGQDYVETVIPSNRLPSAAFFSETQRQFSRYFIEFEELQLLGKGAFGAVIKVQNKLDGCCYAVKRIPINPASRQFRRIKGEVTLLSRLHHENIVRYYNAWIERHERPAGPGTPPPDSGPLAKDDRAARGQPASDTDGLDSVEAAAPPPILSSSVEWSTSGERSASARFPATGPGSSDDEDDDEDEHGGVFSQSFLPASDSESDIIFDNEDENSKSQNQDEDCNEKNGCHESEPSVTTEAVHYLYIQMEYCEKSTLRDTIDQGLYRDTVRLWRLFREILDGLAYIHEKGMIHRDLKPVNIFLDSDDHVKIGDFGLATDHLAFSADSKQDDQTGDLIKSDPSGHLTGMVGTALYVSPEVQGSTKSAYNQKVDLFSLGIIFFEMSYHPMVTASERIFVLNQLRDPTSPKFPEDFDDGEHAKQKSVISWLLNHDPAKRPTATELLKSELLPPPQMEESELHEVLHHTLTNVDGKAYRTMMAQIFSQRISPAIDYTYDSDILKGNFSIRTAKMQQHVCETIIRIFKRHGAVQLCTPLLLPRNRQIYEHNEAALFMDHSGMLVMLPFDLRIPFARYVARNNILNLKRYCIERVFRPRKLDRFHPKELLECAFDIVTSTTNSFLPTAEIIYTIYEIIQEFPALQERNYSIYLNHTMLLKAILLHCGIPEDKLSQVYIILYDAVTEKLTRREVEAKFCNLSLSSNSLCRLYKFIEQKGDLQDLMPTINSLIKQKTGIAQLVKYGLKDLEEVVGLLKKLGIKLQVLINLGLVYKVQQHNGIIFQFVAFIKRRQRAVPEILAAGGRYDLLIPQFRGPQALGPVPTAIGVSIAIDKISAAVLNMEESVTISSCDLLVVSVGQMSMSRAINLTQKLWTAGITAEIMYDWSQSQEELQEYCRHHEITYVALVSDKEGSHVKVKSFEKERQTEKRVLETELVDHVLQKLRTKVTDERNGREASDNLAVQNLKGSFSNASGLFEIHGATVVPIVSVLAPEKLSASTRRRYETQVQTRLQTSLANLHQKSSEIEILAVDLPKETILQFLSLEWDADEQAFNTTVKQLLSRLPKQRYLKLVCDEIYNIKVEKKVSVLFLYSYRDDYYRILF
# ASSAY_NOTES: GCN2 cellular inhibition assay (AlphaScreen SureFire P-eIF2α Ser51, borrelidin-treated U2OS cells)
# Format: cell-based
# CONDITIONS_USED: compounds of Formula IV; biomarker assay, phosphorylated eIF2α Ser51 in borrelidin-treated U2OS cells
pIC50: −log10 of the molar value.

# MOLECULE, pIC50
records = [
    ("CC1CN(c2cncc(-c3cnc4cnc(C(F)(F)F)cn34)n2)C(C)C(c2cn[nH]c2)N1 (single isomer, unassigned) [IV-649]", "< 5.30"),
    ("OCc1cc(C2CCCN(c3ccnc(-c4cnc5cnc(C(F)F)cn45)n3)C2)n[nH]1 (stereo not shown)", "< 5.30"),
    ("OC1(c2cn[nH]c2)CCCN(c2ccnc(-c3cnc4cnc(C(F)(F)F)cn34)n2)C1 (stereo not shown)", "5.30 to 6.30"),
    ("CC1C(c2cn[nH]c2)NCCN1c1ccnc(-c2cnc3cnc(C(F)F)cn23)n1 (stereo not shown)", "5.30 to 6.30"),
]

====

# TGT: intracellular GCN2 (phosphorylation of the GCN2 substrate eIF2α) (Homo sapiens, UniProt Q9P2K8)
# ASSAY_NOTES: GCN2 cellular inhibition assay (AlphaScreen SureFire P-eIF2α Ser51, borrelidin-treated U2OS cells)
# Type: cell-based
# CONDITIONS_USED: compounds of Formula II; biomarker assay, phosphorylated eIF2α Ser51 in borrelidin-treated U2OS cells
pIC50: −log10 of the molar value.

# COMPOUND, pIC50
records = [
    ("CC(=O)N1CCN(c2cc(-c3cnc4ccc(C(F)F)nn34)ncn2)CC1 [II-186]", "5.30 to 6.30"),
    ("C[C@H]1COCCN1c1cc(-c2cnc3ccc(C(F)F)nn23)ncn1 [II-325]", "5.30 to 6.30"),
    ("CS(=O)(=O)NC[C@@H]1CN(c2cc(-c3cnc4ccc(C5CC5)nn34)ncn2)CCO1 [II-249]", "5.30 to 6.30"),
    ("CCC1C(CNS(C)(=O)=O)CCCN1c1cc(-c2cnc3ccc(C(F)F)nn23)ncn1 (single isomer, unassigned) [II-417]", "5.30 to 6.30"),
    ("CS(=O)(=O)NCC1CCCN(c2ccnc(-c3cnc4ccc(C(F)F)nn34)c2)C1 (centres unmarked) [II-125]", "> 6.30"),
    ("CS(=O)(=O)NCC1CCCN(c2cc(-c3cnc4ccc(C(F)F)nn34)cc(N3CC4(CNC4)C3)n2)C1 (centres unmarked) [II-92]", "5.30 to 6.30"),
    ("CC1(C)CN(c2cc(-c3cnc4ccc(C(F)F)nn34)ncn2)C[C@@H](CNS(C)(=O)=O)O1 [II-403]", "> 6.30"),
    ("CS(=O)(=O)NCC1CN(c2ccnc(-c3cnc4ccc(C(F)F)nn34)c2)CCC1(F)F (centres unmarked) [II-103]", "> 6.30"),
    ("OC[C@@H]1CN(c2cc(-c3cnc4ccc(C(F)F)nn34)ccn2)CCN1 [II-169]", "< 5.30"),
    ("CCN1CCN(c2cc(-c3cnc4ccc(C(F)F)nn34)ncn2)C(C)C1CNS(C)(=O)=O (single isomer, unassigned) [II-542]", "> 6.30"),
    ("OCCC1CN(c2cc(-c3cnc4ccc(C(F)F)nn34)ccn2)CCO1 (centres unmarked) [II-146]", "5.30 to 6.30"),
    ("CC1CN(c2cc(-c3cnc4ccc(C(F)F)nn34)ncn2)CC(CNS(C)(=O)=O)O1 (centres unmarked) [II-31]", "> 6.30"),
    ("CC(NS(C)(=O)=O)[C@@H]1CN(c2cc(-c3cnc4ccc(C(F)F)nn34)ncn2)CCO1 (single isomer, unassigned) [II-510]", "5.30 to 6.30"),
    ("CC1CN(c2cc(-c3cnc4ccc(C(F)F)nn34)ccn2)CC(CNS(C)(=O)=O)O1 (centres unmarked) [II-118]", "5.30 to 6.30"),
    ("CC1C(CNS(C)(=O)=O)C(F)(F)C(C)CN1c1cc(-c2cnc3ccc(C(F)F)nn23)ncn1 (single isomer, unassigned) [II-470]", "5.30 to 6.30"),
    ("FC(F)c1ccc2ncc(-c3ccnc(N4CCOCC4)c3)n2n1 [II-76]", "< 5.30"),
    ("CC1CN(c2cc(-c3cnc4ccc(C(F)(F)F)nn34)ncn2)C(C)C(c2cn[nH]c2)N1 (centres unmarked) [II-704]", "< 5.30"),
    ("FC(F)(F)c1ccc2ncc(-c3ccnc(N4CCOC(c5cn[nH]c5)C4)c3)n2n1 (single isomer, unassigned) [II-229]", "> 6.30"),
    ("FC(F)c1ccc2ncc(-c3cc(N4CCC(c5c[nH]cn5)C4)ncn3)n2n1 (centres unmarked) [II-203]", "< 5.30"),
    ("CC(=O)N1CCCC(c2cc(-c3cnc4ccc(C(F)F)nn34)ncn2)C1 (centres unmarked) [II-222]", "5.30 to 6.30"),
    ("CS(=O)(=O)NC1CCC2(CCN(c3cc(-c4cnc5ccc(C(F)F)nn45)ncn3)C2)C1 (single isomer, unassigned) [II-100]", "5.30 to 6.30"),
    ("FC(F)c1ccc2ncc(-c3cc(N4CC5CC(C4)O5)ncn3)n2n1 [II-451]", "5.30 to 6.30"),
    ("CC1C(CO)CCCN1c1cc(-c2cnc3ccc(C(F)F)nn23)ncn1 (centres unmarked) [II-373]", "5.30 to 6.30"),
    ("CNc1cc(-c2cnc3ccc(C(F)F)nn23)cc(N2CCC[C@H](CNS(C)(=O)=O)C2)n1 [II-68]", "5.30 to 6.30"),
    ("FC(F)c1ccc2ncc(-c3cc(N4CCOC(Cn5cnnc5)C4)ncn3)n2n1 (centres unmarked) [II-29]", "< 5.30"),
    ("FC(F)(F)c1ccc2ncc(-c3cc(N4CCCC(c5c[nH]cn5)C4)ncn3)n2n1 (centres unmarked) [II-715]", "5.30 to 6.30"),
    ("OCCC1CCN(c2cc(-c3cnc4ccc(C(F)F)nn34)ccn2)CC1 [II-168]", "5.30 to 6.30"),
    ("OCC1CN(c2cc(-c3cnc4ccc(C(F)F)nn34)ncn2)CC2(CC2)O1 (centres unmarked) [II-359]", "< 5.30"),
    ("CC1C(CS(C)(=N)=O)CCCN1c1cc(-c2cnc3ccc(C(F)F)nn23)ncn1 (centres unmarked) [II-486]", "5.30 to 6.30"),
    ("CS(=O)(=O)N1CCCC(c2cc(-c3cnc4ccc(C(F)F)nn34)ncn2)CC1 (single isomer, unassigned) [II-275]", "5.30 to 6.30"),
    ("CC1CC(C(N)=O)C(C)N(c2cc(-c3cnc4ccc(C(F)(F)F)nn34)ncn2)C1 (single isomer, unassigned) [II-717]", "> 6.30"),
    ("CS(=O)(=O)NCC1CCCN(c2cncc(-c3cnc4ccc(C(F)F)nn34)c2)C1 (centres unmarked) [II-87]", "5.30 to 6.30"),
]
